- System Name: Human autotaxin enzyme (Homo sapiens)
- Construct: purchased R&D System
- Method: Evaluation of autotaxin inhibitor, Method C (Test Example 3): 18:0 Lyso PC, choline assay, Resorufin fluorescence
- Format: biochemical
- Condition Description: Assay Method C (Test Example 3), human autotaxin, 18:0 Lyso PC substrate; read-out: Inhibitory Activity (autotaxin enzyme inhibitory activity, IC50 class)
Observable: IC50

- Compound: "CCCCCn1c(N2C[C@@H](F)C[C@H]2C(=O)NC(C)(C)CC(=O)OCC)cc(=O)n2cc(-c3ccc(Cl)cc3)nc12"
  IC50: "10 to 100 nM"

Please give IC50, item by item, for the list that follows.
1. CCCCCn1c(O[C@H]2CCN(CC(=O)OC(C)(C)C)C2)cc(=O)n2cc(-c3ccc(Cl)cc3)nc12
2. CCCCCn1c(OC2CCN(CC(=O)O)CC2)cc(=O)n2cc(-c3ccc(Cl)cc3)nc12
3. CCCCCn1c(N(C)CC(=O)O)cc(=O)n2cc(-c3ccc(Cl)cc3)nc12
4. CCCCCn1c(-c2ccc(C(=O)NCCCn3ccnc3)cc2)cc(=O)n2cc(-c3ccc(Cl)cc3)nc12
5. CCCCCn1c(N2CCC[C@H]2C(=O)N[C@@H]2CNC(=O)C2)cc(=O)n2cc(-c3ccc(Cl)cc3)nc12
6. CCCCCn1c(-c2ccc(C(=O)NCCC#N)cc2)cc(=O)n2cc(-c3ccc(Cl)cc3)nc12
7. CCCCCn1c(N2CCCC2Cc2ccccc2)cc(=O)n2cc(-c3ccc(Cl)cc3)nc12 (centres unmarked)
8. CCCCCn1c(N2CCC[C@H]2C(=O)NCCCNC)cc(=O)n2cc(-c3ccc(Cl)cc3)nc12

1. 10 to 100 nM
2. 10 to 100 nM
3. 100 to 1000 nM
4. < 10 nM
5. 100 to 1000 nM
6. 10 to 100 nM
7. 100 to 1000 nM
8. > 1000 nM

* * *

Provide the reported pIC50 of each item.
- System Name: Mouse autotaxin enzyme (Mus musculus)
- Construct: purchased R&D System
- Method: Evaluation of autotaxin inhibitor, Method A (Test Example 1): TG-mTMP fluorescence
- Assay type: biochemical
- Condition Description: Assay Method: Method A (Test Example 1); read-out: Inhibitory Activity (Enzyme Inhibitory Activity, IC50)
- Experimental: (Method A) Evaluation of Autotaxin Inhibitor Solution A containing 25 mM Tris-HCl buffer (pH7.5), 100 mM NaCl, 5 mM MgCl2 and 0.1% BSA was prepared. […] 5 μl of 150 mM EDTA in Solution A was added to quench the reaction, and a fluorescent dye TokyoGreen, which was produced by the reaction, was detected. The fluorescence was detected using ViewLux (PerkinElmer, Inc.) with an excitation wavelength of 480 nm and a fluorescence wavelength of 540 nm. […]
pIC50: −log10 of the molar value.

- Test Smiles: "Cc1cc(=O)n2cc(-c3ccc(Cl)cc3)nc2n1C"
  System Name: "Mouse autotaxin enzyme (Mus musculus)"
  Value Measured: "6.00 to 7.00"
- Test Smiles: "CCCCCn1c(C)cc(=O)n2cc(-c3ccc(C)cc3)nc12"
  System Name: "Mouse autotaxin enzyme (Mus musculus)"
  Value Measured: "7.00 to 8.00"
- Test Smiles: "CCN(C)C(=O)Cn1c(C)cc(=O)n2cc(-c3ccc(Cl)cc3)nc12"
  System Name: "Mouse autotaxin enzyme (Mus musculus)"
  Value Measured: "6.00 to 7.00"

Please give pIC50, item by item, for the list that follows.
1. CCOC(=O)Cn1c(C)cc(=O)n2cc(-c3cccc([N+](=O)[O-])c3)nc12
2. CCOC(=O)Cn1c(C)cc(=O)n2cc(-c3cccc(N)c3)nc12
3. CCOC(=O)Cn1c(C)cc(=O)n2cc(-c3ccccc3)nc12
4. COCCOCCOCCn1c(C)cc(=O)n2cc(-c3ccc(Cl)cc3)nc12

6.00 to 7.00
< 6.00
7.00 to 8.00
< 6.00

Please give pIC50, item by item, for the list that follows.
1. CCOC(=O)Cn1c(C)cc(=O)n2cc(-c3ccc(F)cc3)nc12
2. C#CCn1c(C)cc(=O)n2cc(-c3ccc(Cl)cc3)nc12
3. CCOC(=O)Cn1c(C)cc(=O)n2cc(-c3ccc(I)cc3)nc12
4. Cc1cc(=O)n2cc(-c3ccc(Cl)cc3)nc2n1C1CCCCC1
5. CCOC(=O)Cn1c(C)cc(=O)n2cc(-c3cccc(Br)c3)nc12

1: 7.00 to 8.00; 2: 7.00 to 8.00; 3: 7.00 to 8.00; 4: 7.00 to 8.00; 5: < 6.00

* * *

- System Name: Human autotaxin enzyme (Homo sapiens, UniProt Q13822)
- Construct: purchased R&D System
- Method: Evaluation of autotaxin inhibitor, Method B (Test Example 2): TG-mTMP fluorescence
- Format: biochemical
- Condition Description: Assay Method B (Test Example 2), human autotaxin; read-out: Inhibitory Activity (autotaxin enzyme inhibitory activity, IC50 class)
Provide the reported IC50 of each item.

Please give IC50, item by item, for the list that follows.
1. CCCCCn1c(NCc2ccc3c(c2)OCO3)cc(=O)n2cc(-c3ccc(Cl)cc3)nc12 [Compound 249]
2. Cc1cc(=O)n2cc(-c3ccc(Cl)cc3)nc2n1Cc1ccc(-c2ncccn2)cc1 [Compound 91]
3. CCCCCn1c(-c2ccccc2)cc(=O)n2cc(-c3ccc(Cl)cc3)nc12 [Compound 366]

0.01 to 0.1 µM
0.01 to 0.1 µM
0.01 to 0.1 µM

Please give IC50, item by item, for the list that follows.
1. CCCCCn1c(N2CCOCC2)cc(=O)n2cc(-c3ccc(Cl)cc3)nc12 [Compound 234]
2. CCCCCn1c(-c2cc3ccccc3o2)cc(=O)n2cc(-c3ccc(Cl)cc3)nc12 [Compound 392]
3. CCCCCn1c(C)cc(=O)n2cc(C3CCCCC3)nc12 [Compound 139]
4. CCCCCn1c(C)cc(=O)n2cc(-c3ccc(Oc4ccccc4)cc3)nc12 [Compound 141]
5. CCCCCn1c(N2CCC(C(=O)O)CC2)cc(=O)n2cc(-c3ccc(Cl)cc3)nc12 [Compound 225]
6. CCCCCn1c(C=O)cc(=O)n2cc(-c3ccc(Cl)cc3)nc12 [Compound 370]
7. CCCCCn1c(C)c(-c2ccccc2)c(=O)n2cc(-c3ccc(Cl)cc3)nc12 [Compound 182]

1: < 0.01 µM; 2: 0.1 to 1 µM; 3: 0.1 to 1 µM; 4: 0.01 to 0.1 µM; 5: < 0.01 µM; 6: < 0.01 µM; 7: > 1 µM

* * *

- System Name: Human autotaxin enzyme (Homo sapiens, UniProt Q13822)
- Construct: purchased R&D System
- Method: Evaluation of autotaxin inhibitor, Method C (Test Example 3): 18:0 Lyso PC, choline assay, Resorufin fluorescence
- Assay type: biochemical
- Condition Description: Assay Method C (Test Example 3), human autotaxin, 18:0 Lyso PC substrate; read-out: Inhibitory Activity (autotaxin enzyme inhibitory activity, IC50 class)
pIC50: −log10 of the molar value.
Observable: pIC50

Examples with their reported pIC50 follow.
- Compound: "CCCCCn1c(N2CCN(C(=O)OC(C)(C)C)C(C(=O)O)C2)cc(=O)n2cc(-c3ccc(Cl)cc3)nc12 (stereo not shown) [Compound 639]"
  Value Measured: "6.00 to 7.00"
- Compound: "CCCCCn1c(N2CCN(C(=O)c3ccc([N+](=O)[O-])cc3)CC2)cc(=O)n2cc(-c3ccc(Cl)cc3)nc12 [Compound 292]"
  Value Measured: "6.00 to 7.00"
- Compound: "CCCCCn1c(-c2cccnc2)cc(=O)n2cc(-c3ccc(Cl)cc3)nc12 [Compound 407]"
  Value Measured: "7.00 to 8.00"
- Compound: "CCCCCn1c(-c2ccc(C(=O)NCc3ccco3)cc2)cc(=O)n2cc(-c3ccc(Cl)cc3)nc12 [Compound 506]"
  Value Measured: "7.00 to 8.00"
- Compound: "C[C@H](NC(=O)[C@@H]1CCCN1c1cc(=O)n2cc(-c3ccc(Cl)cc3)nc2n1Cc1ccccc1)C(=O)O [Compound 748]"
  Value Measured: "> 8.00"

Please give pIC50, item by item, for the list that follows.
1. CCCCCn1c(N2CCC[C@H]2C(=O)N2CCC[C@@H](C(=O)O)C2)cc(=O)n2cc(-c3ccc(Cl)cc3)nc12 [Compound 673]
2. CCCCCn1c(N2CCC[C@@]2(C)C(=O)NCC(=O)O)cc(=O)n2cc(-c3ccc(Cl)cc3)nc12 [Compound 635]

> 8.00
< 6.00

* * *

Provide the reported IC50 of each item.
- System Name: Human autotaxin enzyme (Homo sapiens)
- Construct: purchased R&D System
- Method: Evaluation of autotaxin inhibitor, Method C (Test Example 3): 18:0 Lyso PC, choline assay, Resorufin fluorescence
- Type: biochemical
- Condition Description: Assay Method C (Test Example 3), human autotaxin, 18:0 Lyso PC substrate; read-out: Inhibitory Activity (autotaxin enzyme inhibitory activity, IC50 class)

Examples with their reported IC50 follow.
- Compound: "CCCCCn1c(N(CCOCCOC)C(C)=O)cc(=O)n2cc(-c3ccc(Cl)cc3)nc12 [Compound 562]"
  IC50: "100 to 1000 nM"
- Compound: "CCCCCn1c(OC[C@H]2CCCN2C(=O)OC(C)(C)C)cc(=O)n2cc(-c3ccc(Cl)cc3)nc12 [Compound 555]"
  IC50: "10 to 100 nM"
- Compound: "CCCCCn1c(O[C@@H]2CCN(C(=O)OC(C)(C)C)C2)cc(=O)n2cc(-c3ccc(Cl)cc3)nc12 [Compound 550]"
  IC50: "100 to 1000 nM"
- Compound: "CCCCCn1c(N2CC[C@H](C(=O)O)C2)cc(=O)n2cc(-c3ccc(Cl)cc3)nc12 [Compound 670]"
  IC50: "10 to 100 nM"
- Compound: "CCCCCn1c(-c2ccc(OCCO)c(S(N)(=O)=O)c2)cc(=O)n2cc(-c3ccc(Cl)cc3)nc12 [Compound 451]"
  IC50: "10 to 100 nM"
- Compound: "CCCCCn1c(N2CCC[C@H]2C(=O)N2CCC[C@H](C(=O)OCC)C2)cc(=O)n2cc(-c3ccc(Cl)cc3)nc12 [Compound 691]"
  IC50: "100 to 1000 nM"
- Compound: "CCCCCn1c(N2CCC[C@H]2C(=O)N[C@@H](C)C(=O)O)cc(=O)n2cc(-c3ccc(Cl)cc3)nc12 [Compound 675]"
  IC50: "< 10 nM"
- Compound: "CCCCCn1c(-c2ccc(C(=O)NCCN3CCNC3=O)cc2)cc(=O)n2cc(-c3ccc(Cl)cc3)nc12 [Compound 516]"
  IC50: "10 to 100 nM"
- Compound: "CCCCCn1c(N2CCC[C@H]2C(=O)N[C@H]2CNC(=O)C2)cc(=O)n2cc(-c3ccc(Cl)cc3)nc12 [Compound 712]"
  IC50: "100 to 1000 nM"
- Compound: "CCCCCn1c(-c2cnc(N)nc2)cc(=O)n2cc(-c3ccc(Cl)cc3)nc12 [Compound 459]"
  IC50: "10 to 100 nM"

Please give IC50, item by item, for the list that follows.
1. CCCCCn1c(N2C[C@@H](O)C[C@H]2C(=O)N[C@@H](Cc2ccccc2)C(=O)O)cc(=O)n2cc(-c3ccc(Cl)cc3)nc12 [Compound 775]
2. CCCCCn1c(N2CCC(N3CC(C(=O)OC(C)(C)C)C3)C2)cc(=O)n2cc(-c3ccc(Cl)cc3)nc12 (centres unmarked) [Compound 324]
3. CCCCCn1c(N2CCC[C@H]2C(=O)NCCn2ccnc2)cc(=O)n2cc(-c3ccc(Cl)cc3)nc12 [Compound 342]
4. O=C(O)[C@H](Cc1ccccc1)NC(=O)[C@@H]1CCCN1c1cc(=O)n2cc(-c3ccc(Cl)cc3)nc2n1Cc1ccccc1 [Compound 743]

< 10 nM
100 to 1000 nM
100 to 1000 nM
< 10 nM

Source of measurements: patent US20160002247A1
